Please go through the items and note down their log10 of Kd.
target.under.test: T1, Clostridium difficile toxin A (Clostridioides difficile …, UniProt P16154)
T1 construct: also called TcdA
experiment.notes: SPR
assay.context: both partners purified
Recorded Kd (log10, nM)

Suppose we examine the binder A26.8 VHH T56R, Q101K (VHH, source: E. coli TG1, periplasmic extract, purified (IMAC, SEC)) VHH: QVKLEESGGGLVQAGGSLRLSCAASERTFSRYPVAWFRQAPGAEREFVAVISSTGRSTYYADSVKGRFTISRDNAKVTVYLQMNNLKREDTAVYFCAVNSKRTRLQDPNEYDYWGQGTQVTVSS ; what log10 of Kd value has been reported?
0.61

Suppose we examine the binder A26.8 VHH T56I (VHH, source: E. coli TG1, periplasmic extract, purified (IMAC, SEC)) VHH: QVKLEESGGGLVQAGGSLRLSCAASERTFSRYPVAWFRQAPGAEREFVAVISSTGISTYYADSVKGRFTISRDNAKVTVYLQMNNLKREDTAVYFCAVNSQRTRLQDPNEYDYWGQGTQVTVSS ; what log10 of Kd value has been reported?
1.13

Suppose we examine the binder A26.8 VHH T103R (VHH, source: E. coli TG1, periplasmic extract, purified (IMAC, SEC)) VHH: QVKLEESGGGLVQAGGSLRLSCAASERTFSRYPVAWFRQAPGAEREFVAVISSTGTSTYYADSVKGRFTISRDNAKVTVYLQMNNLKREDTAVYFCAVNSQRRRLQDPNEYDYWGQGTQVTVSS ; what log10 of Kd value has been reported?
0.72

Suppose we examine the binder A26.8 VHH T56R (VHH, source: E. coli TG1, periplasmic extract, purified (IMAC, SEC)) VHH: QVKLEESGGGLVQAGGSLRLSCAASERTFSRYPVAWFRQAPGAEREFVAVISSTGRSTYYADSVKGRFTISRDNAKVTVYLQMNNLKREDTAVYFCAVNSQRTRLQDPNEYDYWGQGTQVTVSS ; what log10 of Kd value has been reported?
0.79

Suppose we examine the binder A26.8 VHH T54Y (VHH, source: E. coli TG1, periplasmic extract, purified (IMAC, SEC)) VHH: QVKLEESGGGLVQAGGSLRLSCAASERTFSRYPVAWFRQAPGAEREFVAVISSYGTSTYYADSVKGRFTISRDNAKVTVYLQMNNLKREDTAVYFCAVNSQRTRLQDPNEYDYWGQGTQVTVSS ; what log10 of Kd value has been reported?
1.59

Suppose we examine the binder A26.8 VHH Q106Y (VHH, source: E. coli TG1, periplasmic extract, purified (IMAC, SEC)) VHH: QVKLEESGGGLVQAGGSLRLSCAASERTFSRYPVAWFRQAPGAEREFVAVISSTGTSTYYADSVKGRFTISRDNAKVTVYLQMNNLKREDTAVYFCAVNSQRTRLYDPNEYDYWGQGTQVTVSS ; what log10 of Kd value has been reported?
3.37

Suppose we examine the binder A26.8 VHH D107R (VHH, source: E. coli TG1, periplasmic extract, purified (IMAC, SEC)) VHH: QVKLEESGGGLVQAGGSLRLSCAASERTFSRYPVAWFRQAPGAEREFVAVISSTGTSTYYADSVKGRFTISRDNAKVTVYLQMNNLKREDTAVYFCAVNSQRTRLQRPNEYDYWGQGTQVTVSS ; what log10 of Kd value has been reported?
1.28

Suppose we examine the binder A26.8 VHH T56R, T103R (VHH, also called lead double mutant; source: E. coli TG1, periplasmic extract, purified (IMAC, SEC)) VHH: QVKLEESGGGLVQAGGSLRLSCAASERTFSRYPVAWFRQAPGAEREFVAVISSTGRSTYYADSVKGRFTISRDNAKVTVYLQMNNLKREDTAVYFCAVNSQRRRLQDPNEYDYWGQGTQVTVSS ; what log10 of Kd value has been reported?
0.36
